Reported values of TGI for individual entries
- System: RXF-631 renal
- protocol-summary: NCI tumour cell line growth inhibition, 48 h

compound: COc1ccc(-c2oc3cc(O)c(OC)c(O)c3c(=O)c2O)cc1
TGI: > 100 µM
//
compound: Cc1ccc(NC(=O)C2C3CCC(O3)C2C(=O)O)cc1 (stereo not given)
TGI: > 100 µM
//
compound: CC(=O)Nc1ccc(/C=c2\sc3nnc(-c4cccnc4)n3c2=O)cc1
TGI: 55.2 µM
//
compound: CC(=O)CC(=O)Nc1ccccc1C(F)(F)F
TGI: > 100 µM

The record that follows has no TGI shown yet.
Value of TGI reported for the compound CC(=O)C1C(=O)C(=O)N(CCN2C(=O)C(=O)C(C(C)=O)C2=O)C1=O (stereo not given) is > 100 µM
